We begin with a simple list: items and their reported log10 CC50 at 120 h.
- PROCEDURE SUMMARY: Cytotoxicity against human MT4 cells assessed as reduction in cell viability measured after 5 days by MTT assay
- Type: toxicity, cell-based
- RECORDED CONDITIONS: time 5 day
// do not treat as linear: log10 of CC50 at 120 h, unit µM

Below: 5 compounds and their reported log10 CC50 at 120 h.
COMPOUND	METRIC NAME	NUMERIC RESULT
CN(C(=O)C1CN(C(=O)c2cc(O)c(O)c(O)c2)CCN1S(=O)(=O)c1ccc(N)cc1)c1ccccc1 (stereo not drawn)	log10 CC50 at 120 h	2.13
Nc1ccc(S(=O)(=O)N2CCN(C(=O)c3cc(O)c(O)c(O)c3)CC2C(=O)NCc2cccs2)cc1 (stereo not drawn)	log10 CC50 at 120 h	2.37
CC(C)(C)OC(=O)N1CCC2(CCN(C(=O)C3CN(C(=O)c4cc(O)c(O)c(O)c4)CCN3S(=O)(=O)c3ccc(N)cc3)C2)C1 (stereo not drawn)	log10 CC50 at 120 h	1.62
Nc1ccc(S(=O)(=O)N2CCN(C(=O)c3cc(O)c(O)c(O)c3)C(C(=O)NCc3cccs3)C2)cc1 (stereo not drawn)	log10 CC50 at 120 h	2.22
N#Cc1ccc(S(=O)(=O)N2CCN(C(=O)c3cc(O)c(O)c(O)c3)C(C(=O)NCc3ccco3)C2)cc1 (stereo not drawn)	log10 CC50 at 120 h	2.03

Given the compound Nc1ccc(S(=O)(=O)N2CCN(C(=O)c3cc(O)c(O)c(O)c3)CC2C(=O)NCc2ccc(-c3ccccc3)cc2)cc1 (stereo not drawn) , what is its reported log10 CC50 at 120 h?
1.26

Given the compound CN(C(=O)C1CN(S(=O)(=O)c2ccc(C#N)cc2)CCN1C(=O)c1cc(O)c(O)c(O)c1)c1ccccc1 (stereo not drawn) , what is its reported log10 CC50 at 120 h?
2.05
